# Test summary: Oral bioavailability in Sprague-Dawley rat at 21.3 mg/kg measured over 24 hrs by LC-MS analysis
# Assay type: ADME, organism-based
# Condition info: in vivo
Experimental readout: bioavailability (%)
One number for each entry, in %.

stdin: Entry Cc1cc(NC2Cc3cc(F)c(F)cc3C2)n2nc(C(C)(F)F)nc2n1 : reported bioavailability = ?
stdout: 63

----------
# Test summary: Protein binding in Sprague-Dawley rat plasma at 2 mg/kg, iv administered as infusion for 10 mins by LC-MS analysis
# Type: ADME, organism-based
# Condition info: read-out: PPB (converted)
Experimental readout: fraction unbound at 10 min

stdin: Look at this compound and give its reported fraction unbound at 10 min. Cc1cc(NC2CCc3cc(Br)ccc3C2)n2nc(C(C)(F)F)nc2n1 (stereo in doubt)
stdout: 0.003
